Numbers sourced from paper PMC5585294.

Experiment: physchem
Conditions: pH 7.4

compound: Fc1ccc(-c2nc3ccccn3c2-c2ccnc(Nc3ccc(N4CCNCC4)cc3)n2)cc1
mLogD: 3.1
//
compound: Cc1cn2c(-c3ccnc(N)n3)c(-c3ccc(F)c(NS(C)(=O)=O)c3)nc2cc1CN(C)C
mLogD: 1.6
//
compound: CN(C)Cc1ccn2c(-c3ccnc(N)n3)c(-c3ccc(F)cc3)nc2c1 [ML1, reference compound]
mLogD: 2.4
//
compound: Cc1cn2c(-c3ccnc(Nc4ccc(N5CCNCC5)cc4)n3)c(-c3ccc(F)cc3)nc2cc1CN(C)C
mLogD: 2.8
//
compound: CN(C)Cc1ccn2c(-c3ccnc(N)n3)c(-c3cccc(S(C)(=O)=O)c3)nc2c1
mLogD: 1.5
//
compound: CN(C)Cc1ccn2c(-c3ccnc(N)n3)c(-c3ccc(F)c(NS(C)(=O)=O)c3)nc2c1
mLogD: 0.8
//
compound: CN(C)Cc1ccn2c(-c3ccnc(NCC4CC4)n3)c(-c3cccc(S(C)(=O)=O)c3)nc2c1
mLogD: 2.3
//
compound: CN(C)Cc1ccn2c(-c3ccnc(N)n3)c(-c3cccc(NS(C)(=O)=O)c3)nc2c1
mLogD: 1.6
//
compound: CN(C)Cc1ccn2c(-c3ccnc(Nc4ccc(N5CCNCC5)cc4)n3)c(-c3ccc(F)cc3)nc2c1
mLogD: 2.2

* * *

Assay: in vivo
Conditions: BALB/c, mouse, po, 50 mg/kg

compound: Cc1cn2c(-c3ccnc(NCC4CC4)n3)c(-c3ccc(F)c(NS(C)(=O)=O)c3)nc2cc1CN(C)C [ML10]
concentration at 60 min: ~8.4 µM

* * *

Test system: HepG2 cells
Test: Cytotoxicity assay using HepG2 cells
Details: read-out: HepG2 (IC50 M); cytotoxicity
measured-endpoint: IC50 (nM)

compound: CN(C)Cc1ccn2c(-c3ccnc(Nc4ccc(N5CCNCC5)cc4)n3)c(-c3ccc(F)cc3)nc2c1 [ML3]
units-symbol: nM
endpoint-result: 1900

* * *

Assay: Stability in mouse liver microsomes
Settings: mouse, microsomes, 0.5 h
measured-endpoint: mlm (%rem) (%)

compound: CN(C)Cc1ccn2c(-c3ccnc(N)n3)c(-c3cccc(NS(C)(=O)=O)c3)nc2c1 [ML7]
endpoint-result: 96

compound: CN(C)Cc1ccn2c(-c3ccnc(NCC4CC4)n3)c(-c3cccc(S(C)(=O)=O)c3)nc2c1 [ML6]
endpoint-result: 62

compound: Cc1cn2c(-c3ccnc(NCC4CC4)n3)c(-c3ccc(F)c(NS(C)(=O)=O)c3)nc2cc1CN(C)C [ML10]
endpoint-result: 59

compound: Cc1cn2c(-c3ccnc(N)n3)c(-c3ccc(F)c(NS(C)(=O)=O)c3)nc2cc1CN(C)C [ML9]
endpoint-result: 81

* * *

Biological target: PfPKG T618Q (Plasmodium falciparum, UniProt Q8I719, T618Q)
Sequence (Q8I719 whole entry T618Q): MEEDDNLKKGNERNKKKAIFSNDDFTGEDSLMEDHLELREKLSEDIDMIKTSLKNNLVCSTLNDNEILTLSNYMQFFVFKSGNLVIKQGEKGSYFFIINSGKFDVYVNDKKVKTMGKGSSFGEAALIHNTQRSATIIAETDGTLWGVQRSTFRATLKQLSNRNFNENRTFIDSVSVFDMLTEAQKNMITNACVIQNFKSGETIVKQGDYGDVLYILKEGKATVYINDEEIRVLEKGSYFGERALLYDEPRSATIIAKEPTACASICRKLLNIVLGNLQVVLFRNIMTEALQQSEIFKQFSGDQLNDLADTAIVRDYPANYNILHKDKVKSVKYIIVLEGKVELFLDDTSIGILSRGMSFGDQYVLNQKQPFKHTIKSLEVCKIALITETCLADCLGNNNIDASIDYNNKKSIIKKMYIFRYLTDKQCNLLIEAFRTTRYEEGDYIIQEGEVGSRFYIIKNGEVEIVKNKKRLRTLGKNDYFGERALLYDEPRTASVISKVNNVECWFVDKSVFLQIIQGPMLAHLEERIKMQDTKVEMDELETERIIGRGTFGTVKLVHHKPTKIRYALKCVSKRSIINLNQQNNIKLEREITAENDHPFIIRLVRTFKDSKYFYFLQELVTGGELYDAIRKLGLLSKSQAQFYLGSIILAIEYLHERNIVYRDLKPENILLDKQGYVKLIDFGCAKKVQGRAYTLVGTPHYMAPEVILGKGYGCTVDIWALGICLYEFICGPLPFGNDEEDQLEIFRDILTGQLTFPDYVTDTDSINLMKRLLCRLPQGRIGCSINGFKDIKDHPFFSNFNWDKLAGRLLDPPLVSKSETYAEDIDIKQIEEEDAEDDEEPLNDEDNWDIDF
Assay: Microfluidic mobility shift kinase assay, recombinant PfPKG T618Q gatekeeper mutant
Details: read-out: IC50 T618Q; recombinant PfPKG T618Q; ATP at KM (90 µM); +/- s.e.m.
pIC50: −log10 of the molar value.
// reported pIC50 per item

smiles-data: CN(C)Cc1ccn2c(-c3ccnc(N)n3)c(-c3ccc(F)c(NS(C)(=O)=O)c3)nc2c1
modifier: =
pIC50: 4.13
--
smiles-data: CN(C)Cc1ccn2c(-c3ccnc(N)n3)c(-c3cccc(NS(C)(=O)=O)c3)nc2c1
modifier: <
pIC50: 4.00
--
smiles-data: Cc1cn2c(-c3ccnc(N)n3)c(-c3ccc(F)c(NS(C)(=O)=O)c3)nc2cc1CN(C)C
modifier: <
pIC50: 4.00
--
smiles-data: CN(C)Cc1ccn2c(-c3ccnc(Nc4ccc(N5CCNCC5)cc4)n3)c(-c3ccc(F)cc3)nc2c1
modifier: =
pIC50: 6.07
--
smiles-data: CN(C)Cc1ccn2c(-c3ccnc(N)n3)c(-c3cccc(S(C)(=O)=O)c3)nc2c1
modifier: <
pIC50: 4.00
--
smiles-data: Cc1cn2c(-c3ccnc(Nc4ccc(N5CCNCC5)cc4)n3)c(-c3ccc(F)cc3)nc2cc1CN(C)C
modifier: =
pIC50: 6.64
--
smiles-data: Fc1ccc(-c2nc3ccccn3c2-c2ccnc(Nc3ccc(N4CCNCC4)cc3)n2)cc1
modifier: =
pIC50: 5.77
--
smiles-data: CN(C)Cc1ccn2c(-c3ccnc(NCC4CC4)n3)c(-c3cccc(S(C)(=O)=O)c3)nc2c1
modifier: =
pIC50: 4.28
